For each entry below, report its Relative fluorescence reading value.
System: HEK293T cells
method_notes: Expression efficiency of capped luciferase mRNAs in HEK293T cells
Type: cell-based
condition: 6 h after transfection of capped luciferase mRNA into HEK293T cells; ratio to N-7413 (= 1)
Number only, please.

Request: Fill blank: measured Relative fluorescence reading of the compound CC[C@H]1[C@@H](O)[C@H](n2c[n+](C)c3c(=O)[nH]c(N)nc32)O[C@@H]1COP(=O)(O)OP(O)(=S)OP(=O)(O)OC[C@H]1O[C@@H](n2cnc3c(N)ncnc32)[C@H](OC)[C@@H]1OP(=O)([O-])OC[C@H]1O[C@@H](n2cnc3c(=O)[nH]c(N)nc32)[C@H](O)[C@@H]1O (stereo partly drawn) [Compound 718] is ____.
Result: 1.66

Request: Input CCCCCCNC(=O)[C@H]1[C@@H](O)[C@H](n2c[n+](C)c3c(=O)[nH]c(N)nc32)O[C@@H]1COP(=O)(O)OP(=O)(O)OP(=O)(O)OC[C@H]1O[C@@H](n2cnc3c(N)ncnc32)[C@H](OC)[C@@H]1OP(=O)(O)OC[C@H]1O[C@@H](n2cnc3c(=O)[nH]c(N)nc32)[C@H](O)[C@@H]1O [Compound 205]
Result: 1.52

Request: Try this compound too: CO[C@@H]1[C@H](OCOC[C@H]2O[C@@H](n3cnc4c(=O)[nH]c(N)nc43)[C@H](O)[C@@H]2O)[C@@H](COP(=O)(O)OP(=O)(O)OP(=O)(O)OC[C@H]2O[C@@H](n3c[n+](C)c4c(=O)[nH]c(N)nc43)[C@H](O)[C@@H]2C)O[C@H]1n1cnc2c(N)ncnc21 [Compound 57]
Result: 0.88

Request: Further, for CO[C@@H]1[C@H](OP(=O)(O)OC[C@H]2O[C@@H](n3cnc4c(=O)[nH]c(N)nc43)[C@H](O)[C@@H]2O)[C@@H](COP(=O)(O)OP(=O)(O)OP(=O)(O)OC[C@H]2O[C@@H](n3c[n+](C)c4c(=O)[nH]c(N)nc43)[C@H](O)[C@@H]2NC(=O)c2ccccc2)O[C@H]1n1cnc2c(N)ncnc21 [Compound 297] ?
Result: 1.79

Request: Next: CO[C@@H]1[C@H](OP(=O)([O-])OC[C@H]2O[C@@H](n3cnc4c(=O)[nH]c(N)nc43)[C@H](O)[C@@H]2O)[C@@H](COP(=O)(O)OP(=O)(O)OP(=O)(O)OC[C@H]2O[C@@H](n3c[n+](C)c4c(=O)[nH]c(N)nc43)[C@H](O)[C@@H]2OC)O[C@H]1n1cnc2c(N)ncnc21 [Compound N-7413, reference compound]
Result: 1.00

Request: Follow-up entry: C=CC[n+]1cn([C@@H]2O[C@H](COP(=O)(O)OP(=O)(O)OP(=O)(O)OC[C@H]3O[C@@H](n4cnc5c(N)ncnc54)[C@H](OC)[C@@H]3OP(=O)(O)OC[C@H]3O[C@@H](n4cnc5c(=O)[nH]c(N)nc54)[C@H](O)[C@@H]3O)[C@@H](CC)[C@H]2O)c2nc(N)[nH]c(=O)c21 [Compound 716]
Result: 1.50

---

Tested on: HEK293T cells
method_notes: Expression efficiency of capped luciferase mRNAs in HEK293T cells
Assay type: cell-based
condition: 6 h after transfection of capped luciferase mRNA into HEK293T cells; ratio to N-7413 (= 1)
quantity_kind: Relative fluorescence reading
Keep it simple and answer with nothing but the number.

Request: # get_value(readout= Relative fluorescence reading, system= HEK293T cells) for C=CC[C@H]1[C@@H](O)[C@H](n2c[n+](C)c3c(=O)[nH]c(N)nc32)O[C@@H]1COP(=O)(O)OP(=O)(O)OP(=O)(O)OC[C@H]1O[C@@H](n2cnc3c(N)ncnc32)[C@H](OC)[C@@H]1OP(=O)(O)OC[C@H]1O[C@@H](n2cnc3c(=O)[nH]c(N)nc32)[C@H](O)[C@@H]1O [Compound 710]
Result: 1.90

Request: Repeat with CO[C@@H]1[C@H](OP(=O)(O)OC[C@H]2O[C@@H](n3cnc4c(=O)[nH]c(N)nc43)[C@H](O)[C@@H]2O)[C@@H](COP(=O)(O)OP(=O)(O)OP(=O)(O)OC[C@H]2O[C@@H](n3c[n+](C)c4c(=O)[nH]c(N)nc43)[C@H](O)[C@@H]2NC(C)=O)O[C@H]1n1cnc2c(N)ncnc21 [Compound 289]
Result: 1.70

Request: What about this compound? CNC(=O)[C@H]1[C@@H](O)[C@H](n2c[n+](C)c3c(=O)[nH]c(N)nc32)O[C@@H]1COP(=O)(O)OP(=O)(O)OP(=O)(O)OC[C@H]1O[C@@H](n2cnc3c(N)ncnc32)[C@H](OC)[C@@H]1OP(=O)(O)OC[C@H]1O[C@@H](n2cnc3c(=O)[nH]c(N)nc32)[C@H](O)[C@@H]1O [Compound 191]
Result: 1.68

Request: Input CCC[C@H]1[C@@H](O)[C@H](n2c[n+](C)c3c(=O)[nH]c(N)nc32)O[C@@H]1COP(=O)(O)OP(=O)(O)OP(=O)(O)OC[C@H]1O[C@@H](n2cnc3c(NC)ncnc32)[C@H](OC)[C@@H]1OP(=O)(O)OC[C@H]1O[C@@H](n2cnc3c(=O)[nH]c(N)nc32)[C@H](O)[C@@H]1O [Compound 719]
Result: 1.69

Request: Similarly, CO[C@@H]1[C@H](CC(=O)NC[C@H]2O[C@@H](n3cnc4c(=O)[nH]c(N)nc43)[C@H](O)[C@@H]2O)[C@@H](COP(=O)(O)OP(=O)(O)OP(=O)(O)OC[C@H]2O[C@@H](n3c[n+](C)c4c(=O)[nH]c(N)nc43)[C@H](O)[C@@H]2C)O[C@H]1n1cnc2c(N)ncnc21 [Compound 59] ?
Result: 0.71

Request: CO[C@@H]1[C@H](OP(=O)(O)OC[C@H]2O[C@@H](n3cnc4c(=O)[nH]c(N)nc43)[C@H](O)[C@@H]2O)[C@@H](COP(=O)(O)OP(=O)(O)OP(=O)(O)OC[C@H]2O[C@@H](n3c[n+](C)c4c(=O)[nH]c(N)nc43)[C@H](O)[C@@H]2NC(=O)C(C)C)O[C@H]1n1cnc2c(N)ncnc21 [Compound 293] , same question.
Result: 1.68
